inhibition values for the molecules below.
- assayedTarget: Cytoplasmic tyrosine-protein kinase BMX (Homo sapiens) (UniProt P51813)
- Sequence (P51813 whole entry): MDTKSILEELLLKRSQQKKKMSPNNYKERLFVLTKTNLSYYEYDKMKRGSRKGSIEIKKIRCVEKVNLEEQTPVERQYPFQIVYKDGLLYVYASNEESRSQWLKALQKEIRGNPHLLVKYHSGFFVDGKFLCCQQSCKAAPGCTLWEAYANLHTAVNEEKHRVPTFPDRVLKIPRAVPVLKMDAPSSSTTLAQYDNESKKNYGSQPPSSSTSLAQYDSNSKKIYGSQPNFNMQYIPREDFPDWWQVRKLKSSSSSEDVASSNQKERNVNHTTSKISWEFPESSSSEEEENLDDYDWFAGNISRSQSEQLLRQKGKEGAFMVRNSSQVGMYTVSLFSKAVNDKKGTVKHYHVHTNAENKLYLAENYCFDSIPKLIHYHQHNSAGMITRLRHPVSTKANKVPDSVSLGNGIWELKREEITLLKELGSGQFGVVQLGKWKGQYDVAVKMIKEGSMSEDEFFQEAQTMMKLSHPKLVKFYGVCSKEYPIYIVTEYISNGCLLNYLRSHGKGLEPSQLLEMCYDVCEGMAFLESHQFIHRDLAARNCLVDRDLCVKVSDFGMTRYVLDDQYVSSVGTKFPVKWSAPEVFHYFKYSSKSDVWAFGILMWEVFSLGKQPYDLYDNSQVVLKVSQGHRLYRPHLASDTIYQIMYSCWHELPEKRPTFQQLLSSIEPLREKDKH
- conditionSet: at 0.1 µM
- Description: GSK_PKIS: BMX mean inhibition at 0.1 uM [Nanosyn]
Number in %, nothing else.

querySmiles: COC(=O)Nc1nc2ccc(Oc3ccc(NC(=O)Nc4cccc(Cl)c4)cc3)cc2[nH]1
numericReadout: 1.98
//
querySmiles: CCn1c(-c2nonc2N)nc2c(C#CC(C)(C)O)nc(OC[C@H](N)c3ccccc3)cc21
numericReadout: 3.88

Let us move to another entry and its inhibition.
Problem: Item: `COc1cccc(-n2ncc3c(N/N=C/c4ccc(F)cc4)ncnc32)c1` Test system: Cytoplasmic tyrosine-protein kinase BMX (Homo sapiens) (UniProt P51813) Read-out: inhibition Value: ?
Result: -0.31

====

Reported inhibition values for the following molecules.
- assayedTarget: Serine/threonine-protein kinase PAK 5 (Homo sapiens);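 note: values are mean percent inhibition of PAK5 from a kinase inhibitor set screen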
- conditionSet: at 0.1 µM
Respond with the bare value in %.

querySmiles: Nc1nc(-c2cccc(Cl)c2)c(-c2ccc3ncccc3n2)s1
inhibition [%]: 1.62
--
querySmiles: CCN1CCC(CC(=O)Nc2n[nH]c3nnc(-c4cccc(F)c4F)cc23)CC1
inhibition [%]: 2
--
querySmiles: COc1ccc2[nH]c3c4[nH]c5ccc(OC)cc5c4c4c(c3c2c1)C(=O)NC4=O
inhibition [%]: 5.43
--
querySmiles: Nc1nc(-c2ccc(F)cc2)c(-c2ccc3ncccc3n2)s1
inhibition [%]: 2.84

Problem: Name the reported inhibition value associated with the molecule `CCc1nn2ncccc2c1-c1ccnc(NC2CC2)n1`
Result: -2.62

Problem: I'd like to know its inhibition. The molecule in question is `COc1cccc(-n2ncc3c(N/N=C/c4ccc(F)cc4)ncnc32)c1`
Result: 9.72

Problem: Item `COc1cc(N2CCN(C(C)C)CC2)ccc1Nc1nc(Nc2ccc(F)cc2C(N)=O)c2cc[nH]c2n1` has what recorded inhibition?
Result: 8.18

Problem: Field request: inhibition | item: `NS(=O)(=O)c1ccc(N/N=C2\C(=O)Nc3ccc4ncccc4c32)cc1`
Result: -1.93

Problem: Data request, read-out inhibition, for `O=C(Nc1n[nH]c2cc(-c3ccc(F)cc3)ccc12)C1CC1`
Result: 4.4

Problem: Need inhibition, item `CN1CCC(n2cnc(-c3ccc(F)cc3)c2-c2ccnc(N)n2)CC1`
Result: -5.17

Problem: I have this molecule here, `c1ccc(-c2nc3n(c2-c2ccc4c(c2)OCO4)CCC3)nc1` , and I need its recorded inhibition.
Result: 3.16

Problem: What measured inhibition goes with `COc1ccc2c(-c3ccnc(Nc4cccc(OC(F)(F)F)c4)n3)cnn2n1` ?
Result: 8.06

Problem: I'd like to know its inhibition. The molecule in question is `CS(=O)(=O)CCNCc1coc(-c2ccc3ncnc(Nc4ccc(OCc5ccccc5)cc4)c3c2)c1`
Result: 3.59

Problem: I am curious: what inhibition value has been reported for `CC(=O)NCc1cccc(C#Cc2cncnc2Nc2ccc(OCc3cccc(F)c3)c(Cl)c2)c1` ?
Result: 2.64

Problem: What does the data say about its inhibition? Entry: `COc1ccc(-c2nn3ncccc3c2-c2ccnc(Nc3ccc4c(c3)OCCO4)n2)cc1`
Result: -2.13

Problem: Suppose we examine the molecule `CCCN1CCC(c2ccc(Nc3nc(Nc4cc(F)ccc4C(N)=O)c4cc[nH]c4n3)c(OC)c2)CC1` ; what inhibition value has been reported?
Result: 1.36

====

- assayedTarget: Serine/threonine-protein kinase D1 (Homo sapiens) (UniProt Q15139);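 note: each value is an averaged percent inhibition of PRKD1 kinase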
- Sequence (Q15139 whole entry): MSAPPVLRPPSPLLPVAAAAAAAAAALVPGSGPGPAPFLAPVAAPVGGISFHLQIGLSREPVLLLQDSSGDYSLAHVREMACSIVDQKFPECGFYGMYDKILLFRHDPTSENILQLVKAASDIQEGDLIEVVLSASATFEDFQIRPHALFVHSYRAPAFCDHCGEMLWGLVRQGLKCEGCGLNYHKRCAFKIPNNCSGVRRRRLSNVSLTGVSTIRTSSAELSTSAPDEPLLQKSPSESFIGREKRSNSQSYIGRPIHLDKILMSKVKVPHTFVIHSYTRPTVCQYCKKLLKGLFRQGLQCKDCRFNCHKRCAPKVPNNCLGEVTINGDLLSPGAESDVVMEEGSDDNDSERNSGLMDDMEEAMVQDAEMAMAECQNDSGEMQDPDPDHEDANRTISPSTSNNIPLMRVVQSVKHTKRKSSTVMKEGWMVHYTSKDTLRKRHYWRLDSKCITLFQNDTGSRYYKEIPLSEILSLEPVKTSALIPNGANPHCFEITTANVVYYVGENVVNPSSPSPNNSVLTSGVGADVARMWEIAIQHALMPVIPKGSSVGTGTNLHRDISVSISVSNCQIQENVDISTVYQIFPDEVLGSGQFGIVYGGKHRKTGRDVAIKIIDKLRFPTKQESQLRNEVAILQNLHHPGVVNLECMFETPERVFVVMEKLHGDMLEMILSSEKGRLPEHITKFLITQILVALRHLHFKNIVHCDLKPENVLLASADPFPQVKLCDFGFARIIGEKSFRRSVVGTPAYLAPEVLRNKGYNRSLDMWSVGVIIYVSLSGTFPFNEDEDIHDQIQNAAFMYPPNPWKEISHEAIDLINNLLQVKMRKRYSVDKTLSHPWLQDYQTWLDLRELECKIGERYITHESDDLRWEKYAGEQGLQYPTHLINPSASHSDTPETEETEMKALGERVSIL
- conditionSet: at 1 µM
Each entry below carries its reported inhibition.
Hi! Could you send only the number? It should be in %, unit omitted.

Record excerpt, results attached:
querySmiles: CCn1c(-c2nonc2N)nc2c(C#CC(C)(C)O)ncc(OC3CCNCC3)c21
measureName: inhibition
unitSymbol: %
numericReadout: 13.4
//
querySmiles: Fc1ccc(-c2nn3ncccc3c2-c2ccnc(Nc3ccc4c(c3)OCCO4)n2)cc1
measureName: inhibition
unitSymbol: %
numericReadout: 36.5

--- query ---
Problem: Reported inhibition for `O=C(O[C@H]1CN[C@H](C#Cc2cc3ncnc(Nc4ccc(Cc5ccccc5)cc4)c3s2)C1)N1CCOCC1` : what is it?
Result: 3.43

====

- assayedTarget: Aurora kinase A (Homo sapiens);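 note: values are mean percent inhibition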
- Sequence (whole entry): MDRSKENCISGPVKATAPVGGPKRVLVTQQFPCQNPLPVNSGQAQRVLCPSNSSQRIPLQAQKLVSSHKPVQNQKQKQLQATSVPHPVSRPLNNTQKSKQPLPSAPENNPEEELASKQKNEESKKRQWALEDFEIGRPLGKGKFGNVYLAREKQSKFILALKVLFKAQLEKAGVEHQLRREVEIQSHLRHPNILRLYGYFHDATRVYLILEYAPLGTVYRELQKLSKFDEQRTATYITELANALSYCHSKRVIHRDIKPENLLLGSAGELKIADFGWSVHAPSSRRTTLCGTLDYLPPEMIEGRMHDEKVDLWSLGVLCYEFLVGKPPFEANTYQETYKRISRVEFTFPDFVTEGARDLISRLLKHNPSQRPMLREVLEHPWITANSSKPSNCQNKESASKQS
- conditionSet: at 1 µM
measureName: inhibition (%)
Report as a plain number; the unit % is understood.

Example compounds with recorded inhibition:
compound: Nc1nc(-c2cccc(Cl)c2)c(-c2ccc3ncccc3n2)s1
unitSymbol: %
inhibition: 4.83
//
compound: COc1ccc(CNC(=O)c2ccc(-c3cc(-c4nnc(C)o4)ccc3C)cc2)cc1
unitSymbol: %
inhibition: 4.73
//
compound: NS(=O)(=O)c1ccc(N/N=C2\C(=O)Nc3ccc4ncccc4c32)cc1
unitSymbol: %
inhibition: 91.8
//
compound: CC1=C(C(=O)Nc2cc(Cl)c3[nH]ncc3c2)C(c2ccc(C(F)(F)F)cc2)CC(=O)N1 (centres undefined)
unitSymbol: %
inhibition: 16.6
//
compound: Fc1ccc(-c2nn3ncccc3c2-c2ccnc(Nc3ccc4c(c3)OCCO4)n2)cc1
unitSymbol: %
inhibition: 33.7
//
compound: COc1cc(Nc2nccc(Nc3ccc4c(C)n[nH]c4c3)n2)cc(OC)c1OC
unitSymbol: %
inhibition: 66.5
//
compound: Nc1nc(-c2ccc(F)cc2)c(-c2ccc3ncccc3n2)s1
unitSymbol: %
inhibition: 10.6
//
compound: O=S(=O)(CCNCc1ccc(-c2ccc3ncnc(Nc4ccc(OCc5cccc(F)c5)c(Cl)c4)c3c2)o1)c1ccccc1
unitSymbol: %
inhibition: 6.24

Problem: Notebook: pull reported inhibition for Aurora kinase A (Homo sapiens), entry `COc1ccc2[nH]c3c4[nH]c5ccc(OC)cc5c4c4c(c3c2c1)C(=O)NC4=O`
Result: 68.8

====

Measured inhibition values are reported for all entries that follow.
- assayedTarget: RAC-beta serine/threonine-protein kinase (Homo sapiens);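 note: reported figure is the mean percent inhibition of AKT2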
- conditionSet: at 0.1 µM
Quick reminder: number only, in %, skip the unit.

querySmiles: COc1cc2ncn(-c3cc(OCc4ccccc4C(F)(F)F)c(C(=O)N(C)C)s3)c2cc1OC
unitSymbol: %
inhibition: -0.31
--
querySmiles: COc1cc2c(cc1Nc1nc(Nc3ccsc3C(N)=O)c3cc[nH]c3n1)N(C(=O)CN(C)C)CCC2(C)C
unitSymbol: %
inhibition: 2.13
--
querySmiles: CCNC(=O)O[C@H]1CN[C@H](C#Cc2cc3ncnc(Nc4ccc(OCc5cccc(F)c5)c(Cl)c4)c3s2)C1
unitSymbol: %
inhibition: 3.39
--
querySmiles: COc1ccc2[nH]c3c4[nH]c5ccc(OC)cc5c4c4c(c3c2c1)C(=O)NC4=O
unitSymbol: %
inhibition: 1.45
--
querySmiles: Fc1ccc(-c2nn3ncccc3c2-c2ccnc(Nc3ccc4c(c3)OCCO4)n2)cc1
unitSymbol: %
inhibition: 1.99
--
querySmiles: COc1ccc(-c2oc3ncnc(N)c3c2-c2ccc(NC(=O)Nc3cc(C(F)(F)F)ccc3F)cc2)cc1
unitSymbol: %
inhibition: 3.21
--
querySmiles: CCN(CC)S(=O)(=O)c1ccc(OC)c(Nc2ncc(-c3ccccc3)o2)c1
unitSymbol: %
inhibition: 0.37
--
querySmiles: CCCN1CCC(c2ccc(Nc3nc(Nc4cc(F)ccc4C(N)=O)c4cc[nH]c4n3)c(OC)c2)CC1
unitSymbol: %
inhibition: 2.13

Problem: Consider the molecule `NC(=O)c1sc(-n2cnc3ccc(C(F)(F)F)cc32)cc1OCc1ccccc1Br` and give its measured inhibition.
Result: 2.44

Problem: GET /values?readout=inhibition&item= `COc1ccc(-c2nn3ncccc3c2-c2ccnc(Nc3ccc4c(c3)OCCO4)n2)cc1`
Result: -0.91

Problem: Please look up its inhibition: `NS(=O)(=O)c1ccc(N/N=C2\C(=O)Nc3ccc4ncccc4c32)cc1`
Result: 1.6

Problem: # input molecule: `CCc1nn2ncccc2c1-c1ccnc(NC2CC2)n1` ; wanted: its inhibition
Result: -0.16

Problem: Need inhibition of `N#Cc1c(NC(=O)c2ccc(F)cc2)sc2c1CCCC2` , thanks.
Result: 0.36

Problem: I would be grateful if you could share the reported inhibition for `COC(=O)c1sc(-n2cnc3cc(OC)c(OC)cc32)cc1OCc1ccccc1C(F)(F)F` .
Result: 2.35

Problem: For `CS(=O)(=O)CCNCc1coc(-c2ccc3ncnc(Nc4ccc(OCc5ccccc5)cc4)c3c2)c1` , what is its reported inhibition?
Result: -0.99
